TGI reference
tested on: K-562 leukemia; assay: NCI tumour cell line growth inhibition, 48 h

Worked cases, TGI given:
CC(C)CCCC(C)[C@H]1CC[C@H]2[C@@H]3CC[C@H]4C[C@@H](CCC=C(c5cc(Cl)c(O)c(C(=O)O)c5)c5cc(Cl)c(O)c(C(=O)O)c5)CC[C@]4(C)[C@H]3CC[C@]12C (some centres undefined) (tested in a mixture with another compound)	> 50 µM
Cc1cc(-c2nc3cc(O)ccc3s2)ccc1N	> 100 µM
COC(=O)/C=C(/C(=O)OC)c1c(C)cc2c(C)cc(C)cc(C)c1-2	> 100 µM
Cc1ccc(S(=O)(=O)c2c3[nH]c4ccccc4nc3n3c2nc2ccccc23)cc1	> 100 µM
C=C(CNCCc1ccc(O)cc1)[C@@H]1CC[C@]2(COC3CCCCO3)CC[C@]3(C)[C@H](CC[C@@H]4[C@@]5(C)CCC(N)C(C)(C)[C@@H]5CC[C@]43C)[C@@H]12 (some centres undefined)	> 100 µM

// moving on: another record for TGI
GET /values?readout=TGI&system=K-562 leukemia&item= "CN1CCN(CCCCN2c3ccccc3Sc3ccc(N=[N+]=[N-])cc32)CC1"
4.07 µM

* * *

TGI reference
tested on: UACC-257 melanoma; assay: NCI tumour cell line growth inhibition, 48 h
Where a SMILES comes first, the peptide text is derived from it. The star is where a group is joined. Cbz = O=C(OCc1ccccc1)*

CCCN(CCC)C(=O)[C@H](CC)[C@@H]1CC[C@@H](C)[C@@H]([C@H](C)[C@@H](O)[C@@H](C)C(=O)[C@H](CC)C2O[C@]3(C=C[C@@H](O)[C@]4(CC[C@@](C)([C@H]5CC[C@](O)(CC)[C@H](C)O5)O4)O3)[C@H](C)C[C@@H]2C)O1 (some centres not stated)	9.83 µM
CCOC(=O)C(CC(=O)OC)NC(=O)C(CC(=O)OC)NC(=O)C(CC(=O)OC)NC(=O)C(CC(=O)OC)NC(=O)OCc1ccccc1 (configuration not stated) (Cbz-D(OMe)D(OMe)D(OMe)D(OMe)-OEt; configuration not given here)	> 100 µM
Clc1ccc(-c2nc3ccc(C45CC6CC(CC(C6)C4)C5)cc3[nH]2)cc1	> 65.7 µM
COc1ccc2c(c1)N=C1CSC(c3c(Cl)cccc3[N+](=O)[O-])N1C2 (configuration not stated)	> 100 µM
COCCNC(=O)c1ccc(-c2nc3ccc4[nH]ncc4c3c3c2CCCC3)cc1	> 100 µM
O=C(CN1CCOCC1)Nc1ccc2c(c1)C1Oc3ccccc3CC1CO2 (configuration not stated)	> 100 µM

// moving on: another record for TGI
GET /values?readout=TGI&system=UACC-257 melanoma&item= "COC(=O)/C=C(/C(=O)OC)c1c(C)cc2c(C)cc(C)cc(C)c1-2"
> 77.5 µM

* * *

tested on: HL-60(TB) leukemia; experiment: NCI tumour cell line growth inhibition, 48 h
TGI reference

CCOC(=O)/C=C/c1c[nH]c(C(=O)OCC)c1	> 100 µM
Nc1ccccc1OCc1cc(=O)c(OCc2ccccc2)co1	> 100 µM
COC(=O)c1c(O)ccc2c1c1c(n2-c2ccc(OC)cc2)C(=O)c2ccccc2C1=O	> 100 µM
OCCNCCNc1c2ccccc2nc2oc3ccccc3c12	50.5 µM
COCCNC(=O)c1ccc(-c2nc3ccc4[nH]ncc4c3c3c2CCCC3)cc1	7.33 µM

Fill in the blank: the reported TGI of "CS/C(c1ccccc1)=[N+](/C)[O-]" is ____.
> 100 µM

Do the same for "N#CN1CCC=C(c2cc3ccccc3[nH]2)C1" please
> 448 µM

Do the same for "COc1ccc(CCc2ccccc2CC(=O)O)cc1" please
> 100 µM

Do the same for O=C(OC(/C=C/c1ccccc1)P1(=O)N(Cc2ccccc2)[C@@H]2CCCC[C@H]2N1Cc1ccccc1)c1ccccc1 (stereo partly specified) please
7.43 µM

Do the same for "Clc1ccc(SCCCCCCCCCCSc2ccc(Cl)cc2)cc1" please
> 100 µM

Do the same for "N#C/C(=C\c1ccc(Br)cc1)c1nc(-c2cc3ccccc3oc2=O)cs1" please
> 50 µM
